# EXPERIMENTAL TARGET: T1, human GARP (glycoprotein A repetitions predominant, LRRC32) on the cell surface (human, UniProt Q14392 20-662)
# T1 construct: whole, on cells; also called hGARP; free GARP
# T1 sequence (looked up): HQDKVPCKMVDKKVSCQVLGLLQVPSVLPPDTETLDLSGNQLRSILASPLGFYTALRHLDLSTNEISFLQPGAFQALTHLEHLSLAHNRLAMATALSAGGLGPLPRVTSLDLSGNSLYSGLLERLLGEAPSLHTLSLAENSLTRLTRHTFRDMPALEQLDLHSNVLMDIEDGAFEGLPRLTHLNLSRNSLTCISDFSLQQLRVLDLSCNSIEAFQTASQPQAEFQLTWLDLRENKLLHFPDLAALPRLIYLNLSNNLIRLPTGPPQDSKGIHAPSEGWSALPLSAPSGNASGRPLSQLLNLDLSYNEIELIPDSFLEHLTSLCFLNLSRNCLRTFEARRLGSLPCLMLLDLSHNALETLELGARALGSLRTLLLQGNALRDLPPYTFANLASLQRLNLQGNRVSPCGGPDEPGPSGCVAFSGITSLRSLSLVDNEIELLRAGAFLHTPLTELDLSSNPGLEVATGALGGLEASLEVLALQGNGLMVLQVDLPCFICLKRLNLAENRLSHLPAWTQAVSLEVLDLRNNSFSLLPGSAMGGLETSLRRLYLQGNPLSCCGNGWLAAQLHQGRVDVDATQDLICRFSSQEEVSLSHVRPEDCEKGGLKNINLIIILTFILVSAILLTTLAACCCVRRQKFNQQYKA
# METHOD DESCRIPTION: FACS, Ag(+) cells, supernatant heated 70 C 5 min, 0.2 ug/ml
Listed next: entries and their corresponding MFI.
Write the value in MFI as a bare number.

Please look up its MFI: huPIIO-1VH2VL3 (antibody, V domains shown, Humanized IgG from Expi293, tested as culture supernatant; also called H2L3; HuPIIO-1VH2/L3) VH: QVQLQESGPGLVKPSQTLSLTCTVSGYSITSDYAWNWIRQFPGNKLEWMGYISYSGSTSYTPSLKSRITISRDTSKNHFFLKLSSVTAADTAVYYCAKSGGDYYGSSSYWYFDVWGQGTMVTVSS VL: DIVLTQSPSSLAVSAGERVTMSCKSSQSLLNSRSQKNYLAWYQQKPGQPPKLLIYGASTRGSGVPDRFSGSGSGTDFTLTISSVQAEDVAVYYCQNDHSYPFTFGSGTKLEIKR
23.2

Please look up its MFI: huPIIO-1VH1VL3 (antibody, V domains shown, Humanized IgG from Expi293, tested as culture supernatant; also called H1L3; HuPIIO-1VH1/L3) VH: QVQLQESGPGLVKPSQTLSLTCTVSGYSITSDYAWNWIRQFPGNKLEWMGYISYSGSTSYTPSLKSRVTISRDTSKNHFSLKLSSVTAADTAVYYCAKSGGDYYGSSSYWYFDVWGQGTMVTVSS VL: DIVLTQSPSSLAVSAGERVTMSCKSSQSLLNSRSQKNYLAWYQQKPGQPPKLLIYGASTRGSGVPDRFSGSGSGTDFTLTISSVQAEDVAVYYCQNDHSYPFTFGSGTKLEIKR
23

Please look up its MFI: huPIIO-1VH4VL2 (antibody, V domains shown, Humanized IgG from Expi293, tested as culture supernatant; also called H4L2; HuPIIO-1VH4/L2) VH: DVQLQESGPGLVKPSQTLSLTCTVSGYSITSDYAWNWIRQFPGNKLEWMGYISYSGSTSYTPSLKSRITISRDTSKNHFFLQLSSVTAEDTATYYCAKSGGDYYGSSSYWYFDVWGQGTTVTVSS VL: DIVLTQSPSSLAVSLGERVTMNCKSSQSLLNSRSQKNYLAWYQQKPGQPPKLLIYGASTRGSGVPDRFSGSGSGTDFTLTISSVQAEDVAVYYCQNDHSYPFTFGQGTKLEIKR
21.7
